Tested on: Phakopsora pachyrhizi (strain containing the amino acid substitution F129L in the mitochondrial cytochrome b protein)
Assay: Use example 2: protective control of soybean rust on soybeans (PHAKPA P6), inoculation six days after spraying
Assay type: in vivo
Conditions: % diseased leaf area on soybean, 16 ppm spray, inoculation six days after treatment, untreated controls usually >85 %
Lab note: anything with PHAKPA Disease level (%) P6 at 16 ppm below 20% is marked Yes; values at 20% or higher are marked No.

These recorded examples may help you get a feel for the data.
{"columns": ["given_smiles", "class_label"],
 "data": [
  ["CNC(=O)/C(=N/OC)c1cccc(C)c1CO/N=C(\\C)C#Cc1ccc(C)cc1", "Yes"],
  ["CO/N=C(/C(=O)OC)c1ccccc1CO/N=C(\\C)C#Cc1ccc(Cl)cc1C(F)(F)F", "No"],
  ["CO/N=C(/C(=O)OC)c1ccccc1CO/N=C(\\C)C#Cc1ccc(Cl)cc1F", "No"],
  ["CNC(=O)/C(=N/OC)c1ccccc1CO/N=C(\\C)C#Cc1ccc(Cl)cc1C1CC1", "Yes"],
  ["CNC(=O)/C(=N/OC)c1cccc(C)c1CO/N=C(\\C)C#Cc1cccc(C(F)(F)F)c1", "Yes"],
  ["CO/N=C(/C(=O)OC)c1ccccc1CO/N=C(\\C)C#Cc1ccccc1Cl", "No"]
]}

Decide: PHAKPA Disease level (%) P6 at 16 ppm of "CNC(=O)/C(=N/OC)c1ccccc1CO/N=C(\C)C#Cc1cccc(C)c1" strictly below 20%?
Yes

Decide: PHAKPA Disease level (%) P6 at 16 ppm of "CO/N=C(/C(=O)OC)c1ccccc1CO/N=C(\C)C#Cc1cccc(Cl)c1" strictly below 20%?
Yes
